Give self-splicing fitness (ln) for every item shown.
assay: self-splicing fitness, log relative to wild type (ln ratio); higher = more splicing; Tetrahymena group I intron in knt gene, E. coli kanamycin selection, DiMSum; sequences stand for … in CUCUCU…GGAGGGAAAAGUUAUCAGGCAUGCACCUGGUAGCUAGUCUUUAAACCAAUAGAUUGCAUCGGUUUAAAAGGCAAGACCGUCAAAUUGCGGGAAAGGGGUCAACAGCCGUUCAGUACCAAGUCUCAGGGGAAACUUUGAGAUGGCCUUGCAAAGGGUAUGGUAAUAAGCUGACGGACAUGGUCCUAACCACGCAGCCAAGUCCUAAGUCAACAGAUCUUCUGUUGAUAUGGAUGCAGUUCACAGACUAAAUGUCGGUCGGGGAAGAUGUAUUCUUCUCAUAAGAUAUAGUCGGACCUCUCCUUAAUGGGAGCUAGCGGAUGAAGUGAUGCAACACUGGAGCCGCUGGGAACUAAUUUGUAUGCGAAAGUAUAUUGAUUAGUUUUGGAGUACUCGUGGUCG; conditions: 37 °C;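 note: selection with 25 µg/mL kanamycin versus none on LB agar overnight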
Lab note: jot the number down without any unit.

Query block: self-splicing fitness (ln) lookup needed for CUGAAGCAAUAUUACGCUAU , thanks.
Result block: -2.04

Query block: Now give it for AUCUAGCAAUAUUACGUGCU too.
Result block: -1.97

Query block: Now give it for AGGAAGCAAUAUUACGCUCU too.
Result block: -1.99
